The reported numbers originate from patent US7960392B2.

# pIC50 per record follows
- measured-on: human EP1 receptor (Homo sapiens)
- Construct: expressed in transfected cells
- Sequence (P34995 whole entry): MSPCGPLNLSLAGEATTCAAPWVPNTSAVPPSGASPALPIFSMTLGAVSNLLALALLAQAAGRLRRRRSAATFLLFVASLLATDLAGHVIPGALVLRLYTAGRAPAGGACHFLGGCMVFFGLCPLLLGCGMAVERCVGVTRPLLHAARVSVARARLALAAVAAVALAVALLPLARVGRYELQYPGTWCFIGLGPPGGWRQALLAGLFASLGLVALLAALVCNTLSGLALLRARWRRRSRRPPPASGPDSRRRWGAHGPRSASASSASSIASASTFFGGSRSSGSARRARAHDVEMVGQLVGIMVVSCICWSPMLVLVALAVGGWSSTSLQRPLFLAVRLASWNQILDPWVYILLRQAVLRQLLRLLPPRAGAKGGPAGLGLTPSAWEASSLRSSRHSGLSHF
- protocol-text: Antagonist activity (intracellular Ca2+ assay) using cells expressing human EP1 receptor
- Type: cell-based
- assay-conditions: HEK293 cells stably expressing human EP1 receptor; inhibition of increase in intracellular Ca2+ concentration by PGE2 (10 nM); Fura 2-AM
pIC50: −log10 of the molar value.
assay-metric: pIC50

structure-smiles-string	measured-on	assay-metric	reported-measurement
Nc1c(-c2ccccc2)nn(-c2nc(C(=O)O)cs2)c1-c1ccccc1	human EP1 receptor (Homo sapiens)	pIC50	≥ 6.52
O=C(O)c1csc(-n2nc3c(c2-c2ccccc2)CCc2ccccc2-3)n1	human EP1 receptor (Homo sapiens)	pIC50	≥ 6.52
O=C(O)c1csc(-n2nc(-c3ccccc3)c3c2-c2ccccc2C3)n1	human EP1 receptor (Homo sapiens)	pIC50	≥ 6.52
Cc1c(-c2ccccc2)nn(-c2nc(C(=O)O)cs2)c1C1=CCCCO1	human EP1 receptor (Homo sapiens)	pIC50	≥ 6.52
Cc1c(-c2ccccc2)nn(-c2nc(C(=O)O)cs2)c1-c1ccco1	human EP1 receptor (Homo sapiens)	pIC50	6.00 to 6.52
O=C(O)c1csc(-n2nc(-c3ccccc3)c(Br)c2-c2ccccc2)n1	human EP1 receptor (Homo sapiens)	pIC50	≥ 6.52
O=C(O)c1csc(-n2nc(-c3ccccc3)c(Cl)c2-c2ccccc2)n1	human EP1 receptor (Homo sapiens)	pIC50	6.00 to 6.52
Cc1c(-c2ccccc2)nn(-c2nc(C(=O)O)cs2)c1-c1ccccc1	human EP1 receptor (Homo sapiens)	pIC50	6.00 to 6.52
O=C(O)c1csc(-n2nc(-c3ccccc3O)cc2-c2ccccc2)n1	human EP1 receptor (Homo sapiens)	pIC50	5.52 to 6.00
O=C(O)c1csc(-n2nc(-c3ccccc3)c(F)c2-c2ccccc2)n1	human EP1 receptor (Homo sapiens)	pIC50	6.00 to 6.52
Cc1c(-c2ccccc2)nn(-c2nc(C(=O)O)cs2)c1-c1ccoc1	human EP1 receptor (Homo sapiens)	pIC50	6.00 to 6.52
